system.name: T1, human IL-10 receptor (hIL-10R alpha and beta chains) on HEK-Blue IL-10 reporter cells (human, UniProt Q13651 22-578; Q08334 20-325)
T1 sequence 1: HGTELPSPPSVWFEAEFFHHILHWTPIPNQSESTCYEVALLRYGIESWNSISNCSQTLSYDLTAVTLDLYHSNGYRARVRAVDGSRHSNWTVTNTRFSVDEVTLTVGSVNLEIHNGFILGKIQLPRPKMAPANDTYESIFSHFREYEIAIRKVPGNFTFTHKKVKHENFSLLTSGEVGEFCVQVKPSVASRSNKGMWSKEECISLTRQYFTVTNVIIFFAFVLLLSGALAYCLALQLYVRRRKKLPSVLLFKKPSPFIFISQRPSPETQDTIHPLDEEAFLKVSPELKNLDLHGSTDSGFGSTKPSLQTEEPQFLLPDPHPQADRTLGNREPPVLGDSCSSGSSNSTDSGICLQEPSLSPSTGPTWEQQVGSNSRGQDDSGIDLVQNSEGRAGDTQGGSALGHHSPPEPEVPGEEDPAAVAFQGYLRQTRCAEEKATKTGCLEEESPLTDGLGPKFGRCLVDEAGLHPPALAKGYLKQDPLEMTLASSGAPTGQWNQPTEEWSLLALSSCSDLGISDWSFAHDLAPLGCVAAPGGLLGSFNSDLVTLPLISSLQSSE
T1 sequence 2: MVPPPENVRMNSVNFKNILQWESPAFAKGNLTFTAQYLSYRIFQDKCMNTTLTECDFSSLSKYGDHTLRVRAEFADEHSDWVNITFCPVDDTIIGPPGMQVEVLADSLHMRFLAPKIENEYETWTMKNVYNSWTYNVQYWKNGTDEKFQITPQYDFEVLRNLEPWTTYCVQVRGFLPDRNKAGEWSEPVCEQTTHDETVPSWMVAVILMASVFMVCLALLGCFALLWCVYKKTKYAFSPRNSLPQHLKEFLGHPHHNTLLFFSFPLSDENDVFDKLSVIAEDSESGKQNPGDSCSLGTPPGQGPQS
assay.explanation: cell-based or functional assay
Entries and their measured Abs 630 (100 nM) follow.
Give the number; Abs 630 is assumed, so skip it.

Examples with answers:
IL10R binding molecule of SEQ ID NO: 281 (bispecific antibody) QVQLQESGGGSVQAGGSLRLSCAVSGYAYSTYCMGWFRQAPGKEREGVAAIDSGGSTSYADSVKGRFTISKDNAKNTLYLRMNSLKPEDTAMYYCAAVPPPPDGGSCLFLGPEIKVSKADFRYWGQGTQVTVSSGGGSQVQLQESGGGSVEAGGSLRLSCAASGYTHSSYCMGWFRQAPGKEREGVAAIDVDGSTTYADSVKGRFTISKDNAKNTLYLQMNSLKPEDTGMYYCAAEFADCSSNYFLPPGAVRYWGQGTQVTVSSASHHHHHH	0.69
IL10R binding molecule of SEQ ID NO: 291 (bispecific antibody) QVQLQESGGGSVQAGGSLRLSCGASGYTYSSYCMGWFRQVPGKEREGVAVIDSDGSTSYADSVKGRFTISKDNGKNTLYLQMNSLKPEDTAMYYCAADLGHYRPPCGVLYLGMDYWGKGTQVTVSSGGGSQVQLQESGGGSVQAGGSLRLSCAASGYTYSSGCMGWFRQAPGKEREAVAAINSDGSTSYADSVKGRFTISKDNAKNTLYLQMNSLKPEDTAMYYCAAEPYCSGGYPRWSVAEFGYWGQGTQVTVSSASHHHHHH	0.59
IL10R binding molecule of SEQ ID NO: 338 (bispecific antibody) QVQLQESGGGSVEAGGSLRLSCAASGYTHSSYCMGWFRQAPGKEREGVAAIDVDGSTTYADSVKGRFTISKDNAKNTLYLQMNSLKPEDTGMYYCAAEFADCSSNYFLPPGAVRYWGQGTQVTVSSGGGSQVQLQESGGGSVQAGGSLRLSCGASGYTYSSYCMGWFRQVPGKEREGVAVIDSDGSTSYADSVKGRFTISKDNGKNTLYLQMNSLKPEDTAMYYCAADLGHYRPPCGVLYLGMDYWGKGTQVTVSSASHHHHHH	0.41
IL10R binding molecule of SEQ ID NO: 317 (bispecific antibody) QVQLQESGGGSVQAGGSLRLSCAASGYTYSSYCMGWFRQAPGKEREGVAHIDSDGSTSYADSVKGRFTISKDNAKNTLYLQMNSLKPEDTAMYYCAADPIPGPGYCDGGPNKYWGQGTQVTVSSGGGSQVQLQESGGGSVQAGGSLRLSCGASGYTYSSYCMGWFRQVPGKEREGVAVIDSDGSTSYADSVKGRFTISKDNGKNTLYLQMNSLKPEDTAMYYCAADLGHYRPPCGVLYLGMDYWGKGTQVTVSSASHHHHHH	0.38

Lab note: next binder to report on.
Q: Data request, read-out Abs 630 (100 nM), for IL10R binding molecule of SEQ ID NO: 332 (bispecific antibody) QVQLQESGGGSVQAGGSLRLSCTVSRYTASVNYMGWFRQAPGKEREGVATIFTGAGTTYYANSVKGRFTISRDNAKNTAYLQMNSLKPEDTAIYYCAVDFRGGLLYRPAYEYTYRGQGTQVTVSSGGGSQVQLQESGGGSVQAGGSLRLSCAASGYSNCSYDMTWYRQAPGKEREFVSAIHSDGSTRYADSVKGRFFISQDNAKNTVYLQMNSLKPEDTAMYYCKTDPLHCRAHGGSWYSVRANYWGQGTQVTVSSASHHHHHH
A: 0.36
